test system: human corneal epithelial (HCE) cell line; assay: TNF-α-induced cell death in HCE cells (MTT cell viability); assay type: cell-based; conditions: 18 or 30 hours; FIG. 10
readout.kind: protection from TNF-induced cell death (viability)

C-5: deletion of the 5 carboxy terminal amino acids of mature lacritin (SEQ ID NO:10) (protein, listed as Homo sapiens) EDASSDSTGADPAQEAGTSKPNEEISGPAEPASPPETTTTAQETSAAAVQGTAKVTSSRQELNPLKSIVEKSILLTEQALAKAGKGMHGGVPGGKQFIENGSEFAQKLLKKFSL | protect
lacritin: recombinant human lacritin from E. coli; mature 119 residue fragment (SEQ ID NO:10) of native lacritin SEQ ID NO:4 (protein, listed as Homo sapiens) EDASSDSTGADPAQEAGTSKPNEEISGPAEPASPPETTTTAQETSAAAVQGTAKVTSSRQELNPLKSIVEKSILLTEQALAKAGKGMHGGVPGGKQFIENGSEFAQKLLKKFSLLKPWA | protect

Where do these numbers come from? They come from patent US7648964B2.
